Target: Adrenergic receptor alpha-1 (Oryctolagus cuniculus)
Assay: Antagonistic activity at Alpha-1 adrenergic receptor was performed on ring segments of rabbit thoracic aorta contracted by noradrenaline.
Below, each entry is listed alongside its reported pA2.

COc1ccccc1N1CCN(CCNC(=O)c2ccsc2)CC1    < 7
COc1ccccc1N1CCN(CCCCNC(=O)c2ccc(C)s2)CC1    < 7

Continue with the next compound.
Q. Identify measured pA2 associated with COc1ccccc1N1CCN(CCNC(=O)c2cccn2C)CC1
A. < 7
